# Tested on: Mus musculus
# assay_protocol: In vivo threshold minimum effective dose for inhibition of LPS-induced TNF-alpha production in mice after oral administration
# Type: functional
For each entry below, report its TMED50 value.
Hey, just the number and the unit after it is fine.

Data request: Request the reported TMED50 associated with `CC(C)(C)c1nc(-c2ccc(F)cc2F)c(-c2ccc3nc(N)n(S(=O)(=O)C(C)(C)C)c3c2)[nH]1.CS(=O)(=O)O`
Data returned: 5.3 mg/kg

Data request: Next entry: `CN(C)S(=O)(=O)n1c(N)nc2ccc(-c3[nH]c(-c4c(F)cccc4F)nc3-c3ccccc3)cc21.CS(=O)(=O)O.CS(=O)(=O)O`
Data returned: 12.5 mg/kg

Data request: Next entry: `CCc1nc(-c2ccc(F)cc2)c(-c2ccc3nc(N)n(S(=O)(=O)C(C)C)c3c2)[nH]1.CS(=O)(=O)O`
Data returned: 6.5 mg/kg

Data request: Next entry: `CC(C)CN1CCC(c2nc(-c3ccc4nc(N)n(S(=O)(=O)C(C)C)c4c3)c(-c3ccccc3)[nH]2)CC1`
Data returned: 7.3 mg/kg
